In this section we review reported Post-emergence effect at 20 g/ha against ZEAMX in % values for a set of compounds.
test system: ZEAMX; assay: Post-emergence herbicidal effect and crop plant compatibility, greenhouse pot test; format: in vivo, Zea mays; conditions: 20 g/ha, one-leaf stage, rated visually after about 3 weeks vs untreated controls
Report the figure in % without appending any unit label.

| compound | measurement unit | observed |
| --- | --- | --- |
| COC(=O)CCOC(=O)C(OC)Oc1nn(-c2ncccc2F)c(-c2ccc(F)nc2)c1C1CC1 (single isomer, unassigned) [Example I-88] | % | 0 |
| COC(Oc1nn(-c2ncccc2F)c(-c2cncc(F)c2)c1C1CC1)C(=O)O (stereo not shown) | % | 0 |
| COC(=O)CCOC(=O)C(OC)Oc1nn(-c2ccccc2F)c(-c2ccc(F)nc2)c1C1CC1 (stereo not shown) [Example I-61] | % | 0 |

Post-emergence effect at 20 g/ha against ZEAMX in % lookup needed for COC(Oc1nn(-c2ccccc2F)c(-c2ccc(F)nc2)c1Br)C(=O)O (stereo not shown) [Example I-24] , thanks.
0

Item COC(=O)C(OC)Oc1nn(-c2ncccc2F)c(-c2ccc(F)nc2)c1C1CC1 (stereo not shown) [Example I-108] has what recorded Post-emergence effect at 20 g/ha against ZEAMX in %?
0

May I ask what Post-emergence effect at 20 g/ha against ZEAMX in % has been recorded for CCOC(Oc1nn(-c2ccccc2F)c(-c2ccc(F)nc2)c1Cl)C(=O)OCCC(=O)OC (stereo not shown) ?
0
